- EXPERIMENTAL_SYSTEM: Voltage-gated potassium channel subunit beta-2 (Rattus norvegicus) (UniProt P62483)
- Sequence (P62483 whole entry, looked up): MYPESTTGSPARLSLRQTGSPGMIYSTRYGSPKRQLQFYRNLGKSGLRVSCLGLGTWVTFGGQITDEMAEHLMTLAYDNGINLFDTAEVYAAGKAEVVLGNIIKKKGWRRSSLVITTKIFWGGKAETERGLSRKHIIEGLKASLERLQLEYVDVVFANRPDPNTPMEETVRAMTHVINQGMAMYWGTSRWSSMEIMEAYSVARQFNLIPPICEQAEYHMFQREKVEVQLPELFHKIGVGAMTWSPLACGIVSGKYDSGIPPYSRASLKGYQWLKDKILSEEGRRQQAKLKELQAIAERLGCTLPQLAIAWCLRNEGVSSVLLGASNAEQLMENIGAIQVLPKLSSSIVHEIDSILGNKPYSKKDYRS
- PROCEDURE_DETAILS: inhibitors of rat Kvbeta2 reductase activity – biochemical, NADPH fluorescence, primary screen (AID 622);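 note: slope of raw intensity against log time taken from 70 to 1610 s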
- CONDITION: recombinant KvBeta, 4-cyanobenzaldehyde reduction, at 10 µM, active compounds read high
So basically every entry gets a class from its fluorescence slope, ranges being lower level = under -0.5, middle level = from -0.5 up to -0.4, upper level = -0.4 and over

COMPOUND	EXPERIMENTAL_SYSTEM	CAT
CCn1c(SCC(=O)N2c3ccccc3CCc3ccccc32)nc2c1c(=O)n(C)c(=O)n2C	Voltage-gated potassium channel subunit beta-2 (Rattus norvegicus) (UniProt P62483)	lower level
CCCn1c2c(c(O)c(C(=O)NC)c1=O)CCCC2	Voltage-gated potassium channel subunit beta-2 (Rattus norvegicus) (UniProt P62483)	lower level
O=C(CCNC(=O)Cn1ccc2ccccc2c1=O)NCCN1CCc2ccccc2C1	Voltage-gated potassium channel subunit beta-2 (Rattus norvegicus) (UniProt P62483)	middle level
O=C(O)CCNc1ccc2c(c1)OCCO2	Voltage-gated potassium channel subunit beta-2 (Rattus norvegicus) (UniProt P62483)	upper level
Cc1ccc(C)c(N(CC(=O)NC2CCCC2)C(=O)CCCC(=O)Nc2ccccn2)c1	Voltage-gated potassium channel subunit beta-2 (Rattus norvegicus) (UniProt P62483)	lower level
COC(=O)Nc1sccc1C(=O)Nc1sccc1C(=O)OC	Voltage-gated potassium channel subunit beta-2 (Rattus norvegicus) (UniProt P62483)	middle level

// bin(item) where item = CCOCCCNC(=O)c1cc2sc(Cl)cc2n1CC
lower level

And the next one, CC(NC(=O)c1ccc2c(c1)OCO2)C(c1cccs1)N1CCOCC1 (stereo not drawn) ?
lower level

Can you handle COc1nc(Oc2ccc(=O)n(C)n2)nc(N(C)C)n1 next?
upper level

Can you handle COc1ccccc1N1CCN(c2cc(N3CCCC3)nc(C)n2)CC1 next?
middle level

Let us now turn to CCOC(=O)CC(=O)CSc1nc(-c2cccnc2)ccc1C#N
upper level

# repeat for COc1cc2c(cc1OC)C(/C(C#N)=N\O)=NC(C)(C)C2
middle level

Another: CCOc1ccc2cc(C#N)c(SCC(=O)N3CCC(C)CC3)nc2c1
upper level

For O=C(CSc1nnnn1C1CCCC1)NCc1ccc2c(c1)OCO2 then?
middle level

Follow-up item: Cn1c(SCc2ccccc2)nnc1C1CCCNC1 (stereo not drawn)
upper level

Same question, O=C(Nc1cccc(Cl)c1)N1CCN(c2ncccn2)CC1 this time
lower level

# iterate: Cc1ccc2c(c1)CCCN2C(=O)C1CCCO1 (stereo not drawn)
middle level

Then this compound: CC(C)n1nnnc1SCC(=O)Nc1ccccc1N1CCOCC1
middle level

Cool, now c1n[nH]c(SCCCCSc2ncn[nH]2)n1
middle level

----------
- PROCEDURE_DETAILS: endothelial E-selectin expression blockers – imaging, HUVEC, immunofluorescence, MLSMR starter and 10KST1 sets, primary screen (AID 487);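 note: signal is fraction of cell area covered by stained E-selectin grains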
- CONDITION: HUVEC TNFalpha-induced E-selectin immunofluorescence imaging, at 2 µM; active compounds read high
Use -30% as the dividing line for inhibition, with the line itself on the Yes side and lower values as No.

MOLECULE	CAT
O=C(Nc1ccc(SC(F)F)cc1)c1ccc2nccnc2c1	Yes

Hello, I need to know if O=C(NCc1ccccc1)C1CCN(S(=O)(=O)c2cccc3cccnc23)CC1 has measured inhibition not below -30%. Thanks!
No

Now this one: Cc1onc(-c2ccccc2)c1C(=O)NCCN1CCOCC1
Yes

What do we get for Cc1nc2ccc(F)cc2cc1C(=O)NCC1CCCO1 (stereo not drawn) ?
No

Then what about the molecule Cn1cnnc1Sc1nc2c(c(=O)n(C)c(=O)n2C)n1Cc1ccccc1Cl ?
No

# iterate: Cc1ccc(Nc2cc(-n3nc(C)cc3C)ncn2)cc1
Yes

Same read-out for Cc1cnc(C(=O)Nc2ccccc2-n2cccc2)cn1 ?
No

----------
- EXPERIMENTAL_SYSTEM: Muscarinic acetylcholine receptor M4 (Homo sapiens)
- PROCEDURE_DETAILS: M4-linked GIRK flux change, two-sided – cell-based, HEK293 M4/GIRK, thallium flux, BTC-AM, M4 allosteric agonist project, primary screen (AID 625);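 note: thallium influx through GIRK channels coupled to M4 in HEK293 cells with BTC-AM dye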
- CONDITION: at 10 µM, actives lie on both sides
For each record, write down the corresponding fluorescence slope.
One number for each entry.

I would be grateful if you could provide fluorescence slope for each of the following entries.
1. COc1ccc(-c2nnc(SCC#N)o2)cc1
2. O=C(Cc1ccccc1)Nc1nnc(-c2cccs2)s1
3. COc1ccccc1CN(Cc1nc2ccccc2c(=O)[nH]1)C(=O)Nc1ccccc1
4. c1ccc(-n2nnnc2OCCOc2nnnn2-c2ccccc2)cc1
5. COc1ccc(OC)c(N2Cc3cc(C)c(C)cc3C2)c1
6. O=C(CSc1nnc2sc3ccccc3n12)c1ccco1
7. Cc1sc2c(c1C)CN(C1CC(C)(C)NC(C)(C)C1)CN2C(=O)c1ccco1

1: 0.00472; 2: 0.00894; 3: 0.0059; 4: 0.00376; 5: 0.00388; 6: 0.00582; 7: 0.00444

Hi! Can you tell me fluorescence slope for each of these compounds?
1. COc1cccc(NC(=O)Cc2nnc(SCC(=O)c3ccccc3)n2C)c1
2. O=C(CCC(=O)OCCCC(F)(F)C(F)(F)F)NC1CCCCC1
3. CC1(C)NC(=O)N(CNc2cc(Cl)ccc2Cl)C1=O
4. COC(=O)C1=C(C)OC(N)=C(C#N)C1c1ccccc1 (centres undefined)

0.0063
0.00556
0.00524
0.0048

Provide fluorescence slope for all items below, preserving their order.
1. Cn1c(SCc2ccc3c(c2)OCO3)nnc1-c1ccccc1
2. CC(OC1=CC(=O)CCC1)C(=O)c1ccccc1 (centres undefined)
3. Cc1cc(C)n(CCCNC(=O)c2ccc3c(c2)NC(=O)CS3)n1
4. N#Cc1c(-c2ccccc2)nc(SCc2nc(N)nc(N3CCCCC3)n2)[nH]c1=O

1. 0.00602
2. 0.00642
3. 0.00708
4. 0.00582

For each of the compounds below, note its fluorescence slope.
1. CCCOc1ccc(N2C(=O)CC(NCCCN3CCC(C(N)=O)CC3)C2=O)cc1 (centres undefined)
2. Cc1ccc(S(=O)(=O)CCc2nnc(NC(=O)c3cnccn3)s2)cc1
3. COc1ccccc1N1CCN(C(=O)CCNS(=O)(=O)c2ccc3c(c2)CCC(=O)N3)CC1
4. Clc1ccc(Cn2ncc3c(NCc4cccnc4)ncnc32)cc1
5. [O-][n+]1c2c(nn1-c1ccccc1Cl)-c1nonc1CC2
6. Cc1ccc(-n2ncc3c(=O)n(CC(=O)NC4CCCCC4)cnc32)cc1C
7. COc1cccc(Nc2nc(=O)[nH]nc2C)c1
8. O=C(NCCC1=CCCCC1)C1CCN(S(=O)(=O)c2cccc3nsnc23)CC1

[0.00445, 0.00653, 0.00579, 0.00407, 0.00719, 0.00615, 0.00575, 0.0046]

Endpoint output: fluorescence slope of CCCCn1c(CN2CCN(c3cccc(Cl)c3)CC2)nc2c1c(=O)n(C)c(=O)n2C . Value?
0.00321

----------
- PROCEDURE_DETAILS: blockers of RIG-like receptor reporter activation – cell-based, Sendai virus stimulus, luciferase, 10K MLSCN set, TLR/RLR signaling modifier project, primary screen (AID 602276);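 note: firefly luciferase from ISG56 promoter only with Renilla not read in this screen; 0% = Sendai virus plus DMSO and 100% = medium plus DMSO without virus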
- CONDITION: HEK293 RL24 IRF3 luciferase reporter, at 10 µM, active compounds read high
Give measured inhibition for each item. Keep answers brief.
Give bare numbers, in %.

CCN(C(C)=O)c1nnc(CSc2nc3ccccc3s2)s1 -76.7
CCOC(=O)c1ccccc1NC(=O)Cn1cnc2c(cnn2-c2ccc(OC)cc2)c1=O 10.8
CC(C)Cc1n[nH]c(=O)[nH]1 -8.4

Okay, next one:
Requested field: inhibition. Item: CCOc1ccccc1Nc1nnc(SCC(=O)N2CCCC2)s1
4.86

----------
- EXPERIMENTAL_SYSTEM: Alpha-2C adrenergic receptor (Homo sapiens)
- PROCEDURE_DETAILS: compounds altering alpha2C-coupled GIRK flux – cell-based, HEK293 alpha2C/GIRK1/2, thallium flux, primary screen (AID 624);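 note: slope of fluorescence ratio to pre-addition baseline per second over 15 to 24 s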
- CONDITION: thallium flux BTC fluorescence, at 10 µM, actives lie on both sides
Exercise: state measured slope for each of the compounds provided.
One number for each entry.

// solved cases for slope follow
COMPOUND	EXPERIMENTAL_SYSTEM	QUANTITATIVE_READOUT
COc1ccc(-n2c(COc3cccc(C)c3)nnc2SCC(=O)NCc2ccco2)cc1	Alpha-2C adrenergic receptor (Homo sapiens)	0.00613
CCOc1ccc(-c2nc(S(=O)(=O)c3ccccc3)c(NCc3cccnc3)o2)cc1	Alpha-2C adrenergic receptor (Homo sapiens)	0.00448

Please report slope for every entry that follows.
1. Cc1ccc(C(O)c2nc3ccccc3n2C(C)C)cc1 (configuration not stated)
2. O=C(NCc1cccs1)C(Cc1ccccc1)n1cccc1 (configuration not stated)
3. COc1ccc(OC)c(NC(=O)C23CCC(C)(C(=O)C2)C3(C)C)c1 (configuration not stated)
4. COc1ccc(OC)c(Nc2nc(-c3cccs3)cs2)c1
5. O=C(O)Cc1ccccc1C(=O)O
6. COc1ccc(OC)c(C(=O)c2ccc(C(=O)O)cc2)c1
7. O=C(Nc1ccccc1Cl)c1c(F)c(F)c(F)c(F)c1F

1: 0.00388; 2: 0.00634; 3: 0.00548; 4: 0.00343; 5: 0.00429; 6: 0.00489; 7: 0.00592

src = PubChem BioAssay
